SYSTEM TESTED: T1, Human EphA2 (Ecto) (Human, UniProt P29317 24-537)
T1 construct: extracellular domain
T1 sequence (P29317 24-537): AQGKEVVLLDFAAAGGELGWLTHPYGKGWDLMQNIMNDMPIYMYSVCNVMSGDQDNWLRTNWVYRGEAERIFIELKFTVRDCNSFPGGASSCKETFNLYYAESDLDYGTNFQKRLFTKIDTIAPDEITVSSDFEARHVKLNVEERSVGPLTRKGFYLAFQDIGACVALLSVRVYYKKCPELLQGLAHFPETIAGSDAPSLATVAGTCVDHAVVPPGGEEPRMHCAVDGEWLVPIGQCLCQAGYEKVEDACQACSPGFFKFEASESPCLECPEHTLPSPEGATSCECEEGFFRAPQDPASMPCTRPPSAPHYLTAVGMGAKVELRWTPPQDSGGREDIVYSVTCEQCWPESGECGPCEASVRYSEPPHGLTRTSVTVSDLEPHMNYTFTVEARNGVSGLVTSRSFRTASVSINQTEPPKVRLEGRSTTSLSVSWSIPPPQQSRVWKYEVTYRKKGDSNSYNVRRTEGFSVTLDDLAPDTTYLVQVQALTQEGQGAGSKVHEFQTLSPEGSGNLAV
ASSAY OVERVIEW: FP competition; competitor Compound 18
Numbered stars: 1 amine (or outer) side, 2 acyl side, 3 side chain; on linkers, the order of the positions; unused ones are H or OH. Bridge positions count the residues as written; N and C are the ends. Square brackets hold non-standard residues; d marks the D form. Ends that are not written are not given here. 1Nal = N[C@@H](Cc1cccc2ccccc12)C(=O)O; TBMB = c1c(C[*:1])cc(C[*:3])cc1C[*:2]; hArg = N=C(N)NCCCC[C@H](N)C(=O)O; Tle = CC(C)(C)[C@H](N)C(=O)O; Aib = CC(C)(N)C(=O)O; βAla = NCCC(=O)O; Sar = CNCC(=O)O
PROPERTY LABEL: Ki (nM)

[
  {
    "BINDER": "Ac-[Sar][Sar]A[dH]DVPCP[1Nal]GPFWCP[Tle]N[hArg]PGC (linker 8-15-22 via TBMB) [Compound 230]",
    "Ki (nM)": 1.8
  },
  {
    "BINDER": "Ac-[Sar][Sar]AH[dD]V[Aib]CPWGPFWCPVNRPGC (linker 8-15-22 via TBMB) [Compound 213]",
    "Ki (nM)": 1.9
  },
  {
    "BINDER": "AHDVPCP[1Nal]GPFWCP[Tle]NRPGC (linker 6-13-20 via TBMB) [Compound 190]",
    "Ki (nM)": 0.7
  },
  {
    "BINDER": "Ac-[Sar][Sar]A[dD]DVTCPWGPFWCPVNRPGC (linker 8-15-22 via TBMB) [Compound 281]",
    "Ki (nM)": 5.78
  },
  {
    "BINDER": "Ac-[Sar][Sar]ADVHCPWGPFWCPVNRPGC (linker 7-14-21 via TBMB) [Compound 148]",
    "Ki (nM)": 1.2
  }
]

[P] Ac-[Sar][Sar]A[dD]VTCPWGP[hArg]WCPVNRPGC (linker 7-14-21 via TBMB) [Compound 171]
[Q] [Sar][Sar]AHEVPCPWGPFWCPVNRPGC (linker 8-15-22 via TBMB) [Compound 207]
Data request: Pick the one with the larger Ki: P vs Q Respond with the label that goes with your answer.
Data returned: P

[1] [βAla][Sar][Sar][Sar][Sar][Sar][Sar][Sar][Sar][Sar][Sar]H[dD]VPCPWGP[hArg]WCP[Tle]N[hArg]P[dD]C (linker 16-23-30 via TBMB) [Compound 272]
[2] Ac-[Sar][Sar]AD[Tle]TCPWGPFWCPVNRPGC (linker 7-14-21 via TBMB) [Compound 164]
Data request: In the pair 1 and 2 , the larger recorded Ki belongs to which? Choose, then provide that item's label.
Data returned: 1
